- tested-target: T1, P6-AA-1HGe-S
- T1 chain: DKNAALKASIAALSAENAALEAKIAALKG
- assay-explanation: two-hybrid library CCmax;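 further: natural log of median RNA to DNA barcode read ratio; higher means stronger binding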
- details: mean of both orientations
Form field: interaction score (one value per entry).
endpoint-label: interaction score

INSERT INTO results (binder, value) VALUES
  ('DENAALEAMIAALMAKNAALKAEIAALEG [P5-AA-1HGe-M]', 1.92),
  ('DENAALEADIAALDAKNAALKAEIAALEG [P5-AA-1HGe-D]', -0.145),
  ('DENAALEAYIAALYAKNAALKAEIAALEG [P5-AA-1HGe-Y]', 1.94),
  ('DENAALEAHIAALHAKNAALKAEIAALEG [P5-AA-1HGe-H]', 1.02),
  ('DENAALEAQIAALQAKNAALKAEIAALEG [P5-AA-1HGe-Q]', 2.03),
  ('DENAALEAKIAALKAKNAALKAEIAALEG [4H1401-AA]', 2.27),
  ('DENAALEAWIAALWAKNAALKAEIAALEG [P5-AA-1HGe-W]', 1.46);
